Value source: patent US20250019385A1

tested on: MKN1 cells; assay: MKN1 CTG proliferation assay (120 h) (gastric cancer, wt amplified); type: cell-based; conditions: Homo sapiens, MKN-1
Reported IC50 values for a set of compounds
measurement_kind: IC50 (µM)

> print(dat)
                                   compound  measurement.kind  unit.string  numeric.readout
1  C[C@H](Oc1nc(-c2onc3c2CCC[C@@]32CCCc3sc(N)c(C#N)c32)nc2c1n(C)c(=O)n2[C@@H]1CCOC1)[C@@H]1[C@H](F)CCN1C [I-4]              IC50           µM            0.509
2  CO[C@H]1C[C@@H]([C@H](C)Oc2nc(-c3onc4c3CCC[C@@]43CCCc4sc(N)c(C#N)c43)nc3c2n(C)c(=O)n3[C@@H]2CCOC2)N(C)C1 [I-2]              IC50           µM            0.095
3  C[C@H](Oc1nc(-c2onc3c2CCC[C@@]32CCCc3sc(N)c(C#N)c32)nc2c1CN(C1COC1)C[C@]21CCOC1)[C@@H]1CCCN1C [I-56]              IC50           µM            0.015
4  C[C@H](Oc1nc(-c2onc3c2CCC[C@@]32CCCc3sc(N)c(C#N)c32)nc2c1n(C)c(=O)n2[C@H]1CCC[C@@H]1O)[C@@H]1CCCN1C [I-19]              IC50           µM             1.04
5  CO[C@@H]1C[C@@H]([C@H](C)Oc2nc(-c3onc4c3CCC[C@@]43CCCc4sc(N)c(C#N)c43)nc3c2CN(C2COC2)C[C@]32CCOC2)N(C)C1 [I-58]              IC50           µM            0.021
6  C[C@H](Oc1nc(-c2onc3c2CCC[C@@]32CCCc3sc(N)c(C#N)c32)nc2c1n(C)c(=O)n2C1CCOCC1)[C@@H]1CCCN1C [I-10]              IC50           µM            0.109

###

molecular target: KRAS (G12V)::CRAF protein::protein interaction (Homo sapiens (Human), UniProt P01116, C118S/G12V); experiment: KRAS TR-FRET assay (KRAS G12V::CRAF, GTP)
Sequence (P01116 other isoform, or with tags, fused parts or gaps G12V/C118S): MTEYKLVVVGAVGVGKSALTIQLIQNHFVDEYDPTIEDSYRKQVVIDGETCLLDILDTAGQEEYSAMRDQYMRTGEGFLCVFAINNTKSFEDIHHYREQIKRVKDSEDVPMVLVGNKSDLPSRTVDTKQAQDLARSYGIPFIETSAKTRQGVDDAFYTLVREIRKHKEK
pIC50: −log10 of the molar value.
Outcome: criterion met for pIC50 of at least 7; criterion not met for anything lower.

> print(dat)
                           smiles.structure        label.value
1  C[C@H](Oc1nc(-c2onc3c2CCC[C@@]32CCCc3sc(N)c(C#N)c32)nc2c1n(C)c(=O)n2[C@@H]1CCCOC1)[C@@H]1CCCN1C      criterion met
2  C[C@H](Oc1nc(-c2onc3c2CCC[C@@]32CCCc3sc(N)c(C#N)c32)nc2c1n(C)c(=O)n2[C@@H]1CCOC1)[C@@H]1C[C@@H](F)CN1C      criterion met
3  C[C@H](Oc1nc(-c2noc3c2CCC[C@@]32CCCc3sc(N)c(C#N)c32)nc2c1CCCO[C@]21CCOC1)[C@@H]1CCCN1C      criterion met
4  C[C@H](Oc1nc(-c2noc3c2CCC[C@@]32CCCc3sc(N)c(C#N)c32)nc2c1COC[C@]21CCOC1)[C@@H]1CCCN1C      criterion met
5  COCCn1c(=O)n(C)c2c(O[C@@H](C)[C@@H]3CCCN3C)nc(-c3onc4c3CCC[C@@]43CCCc4sc(N)c(C#N)c43)nc21  criterion not met

###

test: Solubility measurement (DMSO solution precipitation method); format: physicochemical; conditions: aqueous buffer, kinetic from dmso stock, McIlvaine buffer pH 6.8, 24 h, read-out: solubility pH 6.8
measurement_kind: solubility at 24 h

> print(dat)
                                   molecule       result
1  CO[C@@H]1C[C@@H]([C@H](C)Oc2nc(-c3onc4c3CCC[C@@]43CCCc4sc(N)c(C#N)c43)nc3c2n(C)c(=O)n3[C@@H]2CCCOC2)N(C)C1 [I-14]    < 1 µg/mL
2  C[C@H](Oc1nc(-c2onc3c2CCC[C@@]32CCCc3sc(N)c(C#N)c32)nc2c1CN(C1COC1)C[C@]21CCOC1)[C@@H]1CCCN1C [I-56]  > 147 µg/mL
3  COCCn1c(=O)n([C@@H]2CCOC2)c2nc(-c3onc4c3CCC[C@@]43CCCc4sc(N)c(C#N)c43)nc(O[C@@H](C)[C@@H]3CCCN3C)c21 [I-1]  > 155 µg/mL
4  C[C@H](Oc1nc(-c2noc3c2CCC[C@@]32CCCc3sc(N)c(C#N)c32)nc2c1COC[C@@]21CCOC1)[C@@H]1CCCN1C [II-9a]  > 138 µg/mL

###

experiment: Solubility measurement (DMSO solution precipitation method); assay type: physicochemical; settings: aqueous buffer, kinetic from dmso stock, McIlvaine buffer pH 4.5, 24 h, read-out: solubility pH 4.5
measurement_kind: solubility at 24 h

> print(dat)
                           smiles.structure       result
1  C[C@H](Oc1nc(-c2onc3c2CCC[C@@]32CCCc3sc(N)c(C#N)c32)nc2c1CN(C1COC1)C[C@]21CCOC1)[C@@H]1CC[C@H](C)N1C  > 159 µg/mL
2  C[C@H](Oc1nc(-c2onc3c2CCC[C@@]32CCCc3sc(N)c(C#N)c32)nc2c1N(C)C(=O)CN2[C@@H]1CCOC1)[C@@H]1CCCN1C  > 151 µg/mL
3  CO[C@H]1CCN(C)[C@@H]1[C@H](C)Oc1nc(-c2onc3c2CCC[C@@]32CCCc3sc(N)c(C#N)c32)nc2c1n(C)c(=O)n2[C@H]1CO[C@@H](C)C1  > 148 µg/mL

###

Reported pIC50 values for a set of compounds
molecular target: KRAS (G12V)::CRAF protein::protein interaction (Homo sapiens (Human), UniProt P01116, C118S/G12V); test: KRAS TR-FRET assay (KRAS G12V::CRAF, GTP)
pIC50: −log10 of the molar value.
measurement_kind: pIC50

> print(dat)
                           smiles.structure  numeric.readout
1  Cc1nn([C@@H]2CCOC2)c2nc(-c3onc4c3CCC[C@@]43CCCc4sc(N)c(C#N)c43)nc(O[C@@H](C)[C@@H]3CCCN3C)c12             6.94
2  C[C@H](Oc1nc(-c2onc3c2CCC[C@@]32CCCc3sc(N)c(C#N)c32)nc2c1n(C)c(=O)n2C1CCOCC1)[C@@H]1CCCN1C             6.96
3  C[C@H](Oc1nc(-c2onc3c2CCC[C@@]32CCCc3sc(N)c(C#N)c32)nc2c1n(C)c(=O)n2C12COC(C1)C2)[C@@H]1CCCN1C             6.82
